Attribute: GI50
- Test system: DLD-1
- Protocol: NCI tumour cell line growth inhibition, 48 h
Calls of active or inactive are those of the source. No stated cut-off is given here; in the data, active = GI50 up to about 1.1 µM and inactive = higher.
Test readout: GI50

INSERT INTO assay_data (compound, meas_value) VALUES
  ('COc1ccc([N+]2=NC(c3ccc([N+](=O)[O-])cc3)=NN(c3ccccc3)C2)cc1', '26.5 µM (inactive)'),
  ('CN(C)Cc1cc(/C(=C(\C#N)c2ccccc2)c2ccc(O)cc2)ccc1O', '20.8 µM (inactive)'),
  ('CC1OC(OC2C(CO)OC(O[C@H]3CC[C@@]4(C)C(=CC[C@H]5[C@@H]6C[C@@H]7O[C@]8(CC[C@@H](C)CN8)[C@@H](C)[C@@H]7[C@@]6(C)CC[C@@H]54)C3)C(O)C2O)C(O)C(O)C1O (some centres undefined)', '55 µM (inactive)'),
  ('O=[N+]([O-])c1ccc(C2=Nn3c(nnc3-c3ccccc3)SC2)o1', '14 µM (inactive)'),
  ('O=C(Cc1ccccc1)NN1C(=O)C(Cl)C1c1ccccc1O (centres undefined)', '9.95 µM (inactive)'),
  ('O=C(Nc1ccc(C(F)(F)F)cc1[N+](=O)[O-])C(=O)Nn1c(S)nc2ccccc2c1=O', '> 100 µM (inactive)'),
  ('Oc1c(Cl)c2nccnc2c2ccccc12', '> 100 µM (inactive)'),
  ('C=C(C[N+](C)(C)C)N/N=C/c1oc(-c2ccc(OC)c(OC)c2)c(-c2ccc(OC)c(OC)c2)c1[N+](=O)[O-]', '19.9 µM (inactive)'),
  ('CCc1ccccc1NC(=O)c1cccc([N+](=O)[O-])c1O', '26.7 µM (inactive)');

###

- Test system: OVCAR-3
- Protocol: NCI tumour cell line growth inhibition, 48 h
The source made the active and inactive calls. No stated cut-off is given here; in the data, active = GI50 up to about 1.1 µM and inactive = higher.
Items are presented alongside their recorded GI50.
Test readout: GI50

INSERT INTO assay_data (compound, test_readout, meas_value) VALUES
  ('c1ccc(-c2cnc3nc4ccccc4nc3n2)cc1', 'GI50', '1.16 µM (inactive)'),
  ('COc1ccc(C(=O)/C=C2\Nc3cccnc3N\C2=C/C(=O)c2ccc(OC)cc2)cc1', 'GI50', '14.8 µM (inactive)'),
  ('COc1ccc(NC(C)=O)cc1N1C(=O)/C(=C\c2cccc(Oc3ccccc3)c2)SC1c1ccccc1 (stereo not given)', 'GI50', '21.8 µM (inactive)'),
  ('CN(NC(=O)CCCl)C1=NCCN1', 'GI50', '> 100 µM (inactive)'),
  ('Nc1ccc(S(=O)(=O)c2ccc(NC(=O)c3cccnc3)cc2)cc1', 'GI50', '> 100 µM (inactive)'),
  ('NC(=O)CC(N)C(=O)NC(Cc1ccccc1)C(=O)NC(Cc1ccccc1)NC(=O)C(Cc1c[nH]c2ccccc12)C(=O)O (stereo not given)', 'GI50', '> 100 µM (inactive)'),
  ('O=C(O)CN1CCNCCN(CC(=O)O)CCN(CC(=O)O)CCNCC1', 'GI50', '76 µM (inactive)'),
  ('Nc1ccc(-c2ncc3cc(-c4cccc(-c5cc6cnc(-c7ccc(N)cc7)nc6c6ccccc56)c4)c4ccccc4c3n2)cc1', 'GI50', '> 100 µM (inactive)'),
  ('C1CCC(CC2CCC(NC3=NCCO3)CC2)CC1 (stereo not given)', 'GI50', '15.4 µM (inactive)'),
  ('Cc1noc(/N=C2\C=C(O)C(=O)c3ccccc32)c1C', 'GI50', '4.31 µM (inactive)');

###

- Test system: HL-60
- Protocol: NCI tumour cell line growth inhibition, 48 h
Calls of active or inactive are those of the source. Rule as the data show it: active = GI50 up to about 1.1 µM and inactive = higher.
Test readout: GI50

INSERT INTO assay_data (compound, meas_value) VALUES
  ('Cc1nc2c(o1)C(=O)c1ccccc1/C2=N\c1ccccc1', '2.42 µM (inactive)'),
  ('COc1cc(Nc2nc3c(N)cc(C(F)(F)F)cc3nc2-c2ccccc2)cc(OC)c1OC', '> 100 µM (inactive)'),
  ('C=C1C(OC(C)=O)CC(OC(C)=O)C2(C)C(OC(C)=O)C(OC(C)=O)C3=C(C)C(OC(=O)/C=C/c4ccccc4)CC(C(OC(C)=O)C12)C3(C)C (stereo not given)', '> 100 µM (inactive)'),
  ('Brc1ccc(/N=N/c2ccc3ccccc3n2)cc1', '18.7 µM (inactive)'),
  ('O=C(CCC1OCCO1)Nc1cc(NCc2ccccc2)ccc1OCc1ccccc1', '38.5 µM (inactive)');

###

- Tested on: DMS-273
- Protocol: NCI tumour cell line growth inhibition, 48 h
Calls of active or inactive are those of the source. No stated cut-off is given here; in the data, active = GI50 up to about 1.1 µM and inactive = higher.
Test readout: GI50

INSERT INTO results (compound, meas_value) VALUES
  ('Cc1nc2ccccc2nc1CC(=O)C(=O)Nc1ccc(Cl)cc1Cl', '> 100 µM (inactive)'),
  ('CC(=O)Nc1[nH]n(C)c(=O)c1-c1nnc(C)s1', '> 100 µM (inactive)'),
  ('O=C1NC(=S)NC(=O)C1=Cc1ccc[nH]1', '3.79 µM (inactive)'),
  ('C=C1C(OC(C)=O)CC(OC(C)=O)C2(C)C(OC(C)=O)C(OC(C)=O)C3=C(C)C(OC(=O)/C=C/c4ccccc4)CC(C(OC(C)=O)C12)C3(C)C (stereo unspecified)', '> 100 µM (inactive)'),
  ('O=C(c1ccccc1)C1OC12C(=O)Nc1c(Cl)cc(Cl)cc12 (stereo unspecified)', '15.9 µM (inactive)'),
  ('COc1ccc(-c2c3ccccc3c(-c3ccc(OC)cc3)c3ccccc23)cc1', '> 100 µM (inactive)');

###

- Test system: EKVX
- Protocol: NCI tumour cell line growth inhibition, 48 h
Active and inactive are the calls of the source. No stated cut-off is given here; in the data, active = GI50 up to about 1.1 µM and inactive = higher.
Outcome codes: active, inactive

INSERT INTO results (compound, cat) VALUES
  ('Brc1ccc2c(-c3csc(-c4c[nH]c5cc(Br)ccc45)n3)c[nH]c2c1', 'inactive'),
  ('COc1ccc(C(=O)N2CCc3c([nH]c4ccccc34)C2C(=O)O)o1 (configuration not stated)', 'inactive'),
  ('O=C(Cc1ccccc1)NN1C(=O)C(Cl)C1c1ccccc1O (configuration not stated)', 'inactive'),
  ('O=C(Cc1ccc(O)c(O)c1)NCc1c[nH]c2ccccc12', 'inactive'),
  ('NC(=O)c1c(-c2ccccc2)c(-c2ccccc2)cc2c(=O)c3ccccc3[nH]c12', 'inactive'),
  ('COc1cc2nc(-c3cccs3)[nH]c(=O)c2cc1OC', 'inactive'),
  ('CCOc1c(OC)cc(CNNc2nccs2)cc1OC', 'inactive'),
  ('CC1=NOC2(C1)/C(=N/O)CCC/C2=N\O (configuration not stated)', 'inactive'),
  ('COC(=O)C1=C(C(=O)OC)SC(=C2SCSC3=C2SC(C(=O)OC)=C(C(=O)OC)C32SC3=C(CCCC3)S2)S1', 'inactive'),
  ('O=C(CC(=O)c1ccc([N+](=O)[O-])cc1)C(=O)Nc1nccs1', 'inactive'),
  ('CNN1C(=O)c2c(N)c(C#N)c(-c3ccccc3)c(-c3ccccc3)c2C1=O', 'inactive'),
  ('Oc1cc(-n2cccn2)c(O)cc1-n1cccn1', 'inactive'),
  ('O=C(Cn1c(=O)oc2ccc(C(=O)c3ccccc3Cl)cc21)c1ccc([N+](=O)[O-])cc1', 'inactive'),
  ('Cc1nc(N)nc(N)c1N1CCN(Cc2ccccc2)CC1', 'inactive'),
  ('S=C(N/N=C(/c1ccccc1)c1ccccn1)N1CCCCCC1', 'active'),
  ('Cn1c(=O)c2[nH]c(-n3nc(-c4ccccc4)cc3N)nc2n(C)c1=O', 'inactive'),
  ('COC(=O)/C=C/c1cnc2c(c1)oc(=O)n2C', 'inactive'),
  ('CC(=O)/N=C1/N(/C=C2\C(=O)Oc3ccccc3C2=O)C(=O)/C(=C/c2ccccc2Cl)N1C', 'inactive'),
  ('Nc1nc(SCCC/C=C/B(O)O)nc2c1ncn2C1OC(CO)C(O)C1O (configuration not stated)', 'inactive'),
  ('Cc1c(-c2nc(N)c(C#N)c(N)c2C#N)c(=O)oc2ccccc12', 'inactive'),
  ('c1ccc2c(c1)ccc1nc3ccccn3c12', 'inactive'),
  ('CN(C)Cc1cc(/C(=C(\C#N)c2ccccc2)c2ccc(O)cc2)ccc1O', 'inactive');

###

- Tested on: RXF 393
- Protocol: NCI tumour cell line growth inhibition, 48 h
The source made the active and inactive calls. Rule as the data show it: active = GI50 up to about 1.1 µM and inactive = higher.
Labels: True = active, False = inactive

INSERT INTO assay_data (compound, cat) VALUES
  ('CC(=O)N(C(C)=O)c1cc2c3c(c1)CCCN3CCC2', 'False'),
  ('COc1ccc(NC(C)=O)cc1N1C(=O)/C(=C\c2cccc(Oc3ccccc3)c2)SC1c1ccccc1 (stereo unspecified)', 'False'),
  ('NC1N=C(c2ccc(Cl)cc2)C2=C(N1)c1ccccc1CC2 (stereo unspecified)', 'False'),
  ('Cc1cn(C2CC(Br)C(COC(c3ccccc3)(c3ccccc3)c3ccccc3)O2)c(=O)[nH]c1=O (stereo unspecified)', 'False'),
  ('Nc1ccc(S(=O)(=O)Nc2nc3ccccc3nc2N2CCCCCC2)cc1', 'False'),
  ('O=C(Nc1c(Cl)cccc1Cl)c1c(Cl)c(Cl)c(Cl)c(Cl)c1-c1nc2ccccc2[nH]1', 'False'),
  ('CC[C@@]1(O)C(=O)OCc2c1cc1n(c2=O)Cc2c-1nc1ccccc1c2Cl', 'True'),
  ('OC1C2CCCCN2C[C@@H](O)[C@H]1O (stereo partly specified)', 'False'),
  ('NC(=S)N/N=C(/CCN1CCCC1)CC(C1=C(O)C2=CCCCC2OC1=O)c1ccccc1 (stereo unspecified)', 'False'),
  ('COc1ccc(Cc2ccc3nc(O)cc(C)c3c2)cc1S(=O)(=O)O', 'False'),
  ('C=C(C[N+](C)(C)C)N/N=C/c1oc(-c2ccc(OC)c(OC)c2)c(-c2ccc(OC)c(OC)c2)c1[N+](=O)[O-]', 'False'),
  ('CC1=NOC2(C1)/C(=N/O)CCC/C2=N\O (stereo unspecified)', 'False'),
  ('CCCN(CCC)C(=O)Cc1c2n(c3ccccc13)Cc1ccccc1-2', 'False'),
  ('COc1cc(Nc2nc3c(N)cc(C(F)(F)F)cc3nc2-c2ccccc2)cc(OC)c1OC', 'False'),
  ('c1ccc2cc(-c3cc(-c4cc(-c5ccc6ccccc6c5)on4)no3)ccc2c1', 'False'),
  ('COc1ccccc1N1C(=O)/C(=C\c2cc(OC)c(OC)c(OC)c2)S(=O)(=O)C1c1ccccc1 (stereo unspecified)', 'False'),
  ('COc1cc2c(cc1OC)C(N)CC2=O (stereo unspecified)', 'False'),
  ('O=c1c(Cc2ccccc2)c(-c2ccccc2)[nH]n1C1=NCCN1', 'False'),
  ('Cc1nccn1S(=O)(=O)c1ccc(Cl)cc1', 'False'),
  ('O=C(Cc1ccc(O)c(O)c1)NCc1c[nH]c2ccccc12', 'False'),
  ('COc1cc2c[n+](C)c3c4cc(OC)c(OC)cc4c(OC)cc3c2cc1OC', 'False');
